Examples of compounds with documented TGI follow.
System: UO-31 renal
Test details: NCI tumour cell line growth inhibition, 48 h
Test readout: TGI (µM)

>>> print(df.to_string())
                                    compound  test_readout  bound_operator  result_value
 0  O=C1CCC2CCOc3ccc(O)c1c32 (stereo not drawn)           TGI               >           100
 1  CC(C)(CN1CCCCC1)C(=O)/C=C/c1c(Cl)cccc1Cl           TGI               =          2.27
 2  CC(CC(C)(C)[N+](C)(C)C)[N+](C)(C)C (stereo not drawn)           TGI               >           100
 3  CC(C)(C)OC(=O)NCCNC(=O)CN(CC(=O)O)C1CCCCC1N(CC(=O)O)CC(=O)O (stereo not drawn)           TGI               >           100
 4  CCOC(=O)O/N=C1/C(c2c(O)[nH]c3ccccc23)=Nc2ccccc21           TGI               =          40.6
 5  CCCCNCC(O)c1cc(-c2ccc(C(F)(F)F)cc2)nc(-c2ccc(C(F)(F)F)cc2)c1 (stereo not drawn)           TGI               =          3.08
 6  CCOC(=O)/C=C(/C(=O)OCC)n1ccc(=O)[nH]c1=O           TGI               =          27.8
 7  CC1(CO)C(=O)OC12CCCCC2 (stereo not drawn)           TGI               >           100
 8  O=C1OC(C(O)C(O)C(O)CO)C(O)C1O (stereo not drawn)           TGI               >           100
 9       CC(=O)C(C(=O)C(C)(C)C)C(=O)C(C)(C)C           TGI               >           100
10  Nc1nc(Nc2ccc3c(c2)CCC(N2CCCC2)CC3)nn1-c1cc2c(nn1)-c1ccccc1CCC2 (stereo not drawn)           TGI               =          2.13
11  COc1cc(-c2coc3c(OC)c(OC4OC(COC5OC(C)C(O)C(O)C5O)C(O)C(O)C4O)c(OC)c(O)c3c2=O)cc(C)c1O (stereo not drawn)           TGI               =          50.5
12      N#CI1OC(C(F)(F)F)(C(F)(F)F)c2ccccc21           TGI               =          28.6
13  COc1cccc(/C=N/n2c(Cc3ccc(Cl)cc3)n[nH]c2=O)c1           TGI               >           100
14          O=c1cc2cc(O)[nH]c(=O)c2c(O)[nH]1           TGI               >           100
15  C=CCc1cccc2cc(C(=O)Nc3nc(C45CC6CC(CC(C6)C4)C5)cs3)c(=O)oc12           TGI               =          25.2
16          Cc1oc2c(C)c3oc(=O)cc(C)c3cc2c1CN           TGI               >           100
17  CC12CCC(O)CC1CCC1C2CCC2(C)C(C3=CC(=O)OC3)CCC12 (stereo not drawn)           TGI               >           100
18          C1=C[C@]2(CCC13OCCO3)COc1ccccc12           TGI               >           100
19  O=C(Nc1ccccc1F)c1ccc(NC2=C(Cl)C(=O)N(Cc3ccccc3)C2=O)cc1           TGI               =           3.6
20  COc1ccc(CCC2NCCc3cc(OC)c(OC)cc32)cc1 (stereo not drawn)           TGI               >           100
21  CC(C)(C)C(=O)OCC(COC(=O)C(C)(C)C)[N+](=O)[O-]           TGI               >           100
22  O=C1C(CN2CCCC2)CCCC1CN1CCCC1 (stereo not drawn)           TGI               =          2.31
